For each record, write down the corresponding IC50.
Target: α5 subunit of the human GABAA receptor in association with the beta2 (short) and gamma2 (long) subunits (Homo sapiens, UniProt P18507+P31644+P47870)
Construct: expressed in transfected cells; host or cells: HEK-293
Sequence (P31644 32-462): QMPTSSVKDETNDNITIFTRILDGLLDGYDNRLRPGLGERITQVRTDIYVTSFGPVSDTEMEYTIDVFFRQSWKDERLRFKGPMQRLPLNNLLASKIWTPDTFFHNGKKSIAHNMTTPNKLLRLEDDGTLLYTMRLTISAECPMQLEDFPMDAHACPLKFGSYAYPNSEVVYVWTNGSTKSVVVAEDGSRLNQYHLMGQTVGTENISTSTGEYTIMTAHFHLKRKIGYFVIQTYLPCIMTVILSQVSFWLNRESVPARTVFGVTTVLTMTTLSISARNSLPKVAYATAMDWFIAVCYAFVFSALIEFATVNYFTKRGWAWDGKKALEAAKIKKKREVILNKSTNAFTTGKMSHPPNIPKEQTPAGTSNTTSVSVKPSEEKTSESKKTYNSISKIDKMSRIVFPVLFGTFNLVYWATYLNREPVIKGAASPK
Sequence (P47870 26-474 isoform P47870-1 partner limits assumed): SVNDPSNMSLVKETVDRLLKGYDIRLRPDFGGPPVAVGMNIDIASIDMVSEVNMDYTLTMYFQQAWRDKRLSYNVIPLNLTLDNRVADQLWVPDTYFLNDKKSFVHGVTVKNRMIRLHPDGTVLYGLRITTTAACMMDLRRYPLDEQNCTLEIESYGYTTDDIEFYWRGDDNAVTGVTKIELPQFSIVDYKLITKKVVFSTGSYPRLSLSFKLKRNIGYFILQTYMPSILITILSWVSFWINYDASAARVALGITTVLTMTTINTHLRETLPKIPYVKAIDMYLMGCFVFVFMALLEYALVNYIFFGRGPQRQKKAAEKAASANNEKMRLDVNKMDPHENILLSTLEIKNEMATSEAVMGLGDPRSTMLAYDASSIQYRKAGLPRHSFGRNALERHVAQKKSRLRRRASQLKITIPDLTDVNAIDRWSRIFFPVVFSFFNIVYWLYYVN
Sequence (P18507 40-475 partner): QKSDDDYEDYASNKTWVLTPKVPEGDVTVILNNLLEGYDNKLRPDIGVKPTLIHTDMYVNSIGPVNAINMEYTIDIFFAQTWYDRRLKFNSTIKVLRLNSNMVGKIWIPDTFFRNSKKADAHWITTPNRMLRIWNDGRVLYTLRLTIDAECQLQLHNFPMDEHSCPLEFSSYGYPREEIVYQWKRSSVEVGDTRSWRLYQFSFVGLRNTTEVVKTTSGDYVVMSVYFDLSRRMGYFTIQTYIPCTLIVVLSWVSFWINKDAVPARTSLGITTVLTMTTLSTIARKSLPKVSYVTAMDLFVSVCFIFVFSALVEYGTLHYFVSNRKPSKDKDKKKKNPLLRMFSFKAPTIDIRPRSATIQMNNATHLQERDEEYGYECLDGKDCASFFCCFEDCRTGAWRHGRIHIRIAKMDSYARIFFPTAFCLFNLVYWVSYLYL
Assay: GABA-induced membrane potential response (FMP dye, FlexStation3) in HEK-293 cells expressing GABAA α5
Type: cell-based
Phrase the answer as number then unit, nothing more needed.

Asked: Any idea what IC50 was measured for CCc1ccc2oc(C3=NN=C(C)Cc4cc5c(cc43)OC(C)C(=O)N5)c(CC)c2c1 (stereo not drawn) ?
Given back: 1300 nM

Asked: I'd like to know its IC50. The molecule in question is COc1ccc2oc(C3=NN=C(C)Cc4cc5c(cc43)OC(C)C(=O)N5)c(C)c2c1 (racemic)
Given back: 800 nM

Asked: IC50 lookup needed for CC1=NN=C(c2sc3cc(Cl)c(F)cc3c2C)c2cc3c(cc2C1)NC(=O)C(C)O3 (stereo not drawn) , thanks.
Given back: 3000 nM

Asked: IC50 lookup needed for CC1=NN=C(c2oc3ccc(Cl)cc3c2C)c2cc3c(cc2C1)NC(=O)C(C)O3 (stereo not drawn) , thanks.
Given back: 3000 nM

Asked: // lookup IC50 for CC1=NN=C(c2sc3cccc(F)c3c2C)c2cc3c(cc2C1)NC(=O)C(C)O3 (stereo not drawn)
Given back: 700 nM

Asked: Report IC50 for CC1=NN=C(c2oc3ccc(O)cc3c2C)c2cc3c(cc2C1)NC(=O)C(C)O3 (stereo not drawn) please.
Given back: 430 nM

----------
Record form. Attribute: IC50. Fill in for each entry.
Target: α1 subunit of the human GABAA receptor in association with the beta2 (short) and gamma2 (long) subunits (Homo sapiens, UniProt P14867+P18507+P47870)
Construct: expressed in transfected cells; host or cells: HEK-293
Sequence (P14867 28-456): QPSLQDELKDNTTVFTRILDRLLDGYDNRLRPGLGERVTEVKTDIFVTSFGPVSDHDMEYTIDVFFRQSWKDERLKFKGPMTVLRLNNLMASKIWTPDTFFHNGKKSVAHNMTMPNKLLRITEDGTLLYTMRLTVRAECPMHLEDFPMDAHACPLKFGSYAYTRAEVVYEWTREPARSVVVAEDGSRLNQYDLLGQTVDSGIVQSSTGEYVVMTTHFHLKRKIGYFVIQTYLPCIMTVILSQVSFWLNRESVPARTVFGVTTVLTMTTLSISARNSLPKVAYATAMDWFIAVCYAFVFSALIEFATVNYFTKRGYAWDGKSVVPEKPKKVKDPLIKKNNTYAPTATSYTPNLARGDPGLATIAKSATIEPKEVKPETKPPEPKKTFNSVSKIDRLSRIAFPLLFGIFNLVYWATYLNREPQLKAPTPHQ
Sequence (P47870 26-474 isoform P47870-1 partner limits assumed): as the sequence (P47870 26-474 isoform P47870-1 partner limits assumed) above
Sequence (P18507 40-475 partner): as the sequence (P18507 40-475 partner) above
Assay: GABA-induced membrane potential response (FMP dye, FlexStation3) in HEK-293 cells expressing GABAA α1
Assay type: cell-based
Conditions: HEK 293 cells expressing GABAA α1; expressed as % of GABA EC50; read-out: α1 IC50

Asked: Entry CCc1c(C2=NN=C(C)Cc3cc4c(cc32)OC(C)C(=O)N4)sc2ccc(Cl)cc12 (racemic) has what IC50?
Given back: > 10 µM

Asked: Look up IC50 for this molecule: CC1=NN=C(c2sc3cc(Cl)ccc3c2C)c2cc3c(cc2C1)NC(=O)C(C)O3 (racemic)
Given back: > 10 µM

----------
Target: α5 subunit of the human GABAA receptor in association with the beta2 (short) and gamma2 (long) subunits (Homo sapiens, UniProt P18507+P31644+P47870)
Construct: expressed in transfected cells; host or cells: HEK-293
Assay: GABA-induced membrane potential response (FMP dye, FlexStation3) in HEK-293 cells expressing GABAA α5
Format: cell-based
Settings: HEK 293 cells expressing GABAA α5; expressed as % of GABA EC50; read-out: α5 IC50
Field: pIC50. Provide a value for each of the molecules that follow.
Units for pIC50: none; it is -log10 of a concentration expressed in mol/L.

Asked: Which measured pIC50 value corresponds to CCc1c(C2=NN=C(C)Cc3cc4c(cc32)OC(C)C(=O)N4)sc2ccc(Cl)cc12 (racemic) ?
Given back: 6.15

Asked: Please look up its pIC50: CC1=NN=C(c2sc3cc(Cl)ccc3c2C)c2cc3c(cc2C1)NC(=O)C(C)O3 (racemic)
Given back: 6.05
